# assay target: nociceptin receptor (OPRL1) (Homo sapiens)
# test description: cell-based
# Format: cell-based
# condition parameters: NOR cAMP pEC50± SEM
# key: entry, value: EC50
Quick note: give the figure in nM, leave out the unit.

> print(dat)
                                   compound  reported.result
1  NC(=O)c1cccc(N2C3CCC2CN(CCCc2ccccc2)C3)c1F [Compound 19]             3.16

Give recorded EC50. NC(=O)c1cc(N2C3CCC2CN(CCCc2ccccc2)C3)ccc1F [Compound 18] 25.1

---

# key: entry, value: Emax
# assay target: nociceptin receptor (OPRL1) (Homo sapiens, UniProt P41146)
# Sequence (P41146 whole entry): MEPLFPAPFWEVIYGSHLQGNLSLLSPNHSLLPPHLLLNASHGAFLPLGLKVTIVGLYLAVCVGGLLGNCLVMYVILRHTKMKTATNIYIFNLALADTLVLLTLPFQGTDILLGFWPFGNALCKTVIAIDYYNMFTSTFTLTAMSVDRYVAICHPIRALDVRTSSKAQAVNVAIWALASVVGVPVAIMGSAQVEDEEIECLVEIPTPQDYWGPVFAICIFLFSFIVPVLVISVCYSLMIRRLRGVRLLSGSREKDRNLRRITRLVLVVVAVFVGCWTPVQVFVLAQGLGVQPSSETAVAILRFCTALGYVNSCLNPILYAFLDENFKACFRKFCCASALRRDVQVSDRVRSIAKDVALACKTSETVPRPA
# test description: cell-based
# Assay type: cell-based
# condition parameters: read-out: NOR cAMP Emax ± SEM (%)
Quick note: give the figure in %, leave out the unit.

Answered cases to consult:
> print(dat)
                               smiles.input  reported.result
1  NC(=O)c1cc(N2C3CCC2CN(CCCc2ccccc2)C3)ccc1F             41.9
2  NC(=O)c1cccc(N2C3CCC2CN(CCCc2ccccc2)C3)c1F             19.5
3  NC(=O)c1cc(N2C3CCC2CN(CCCc2ccccc2)C3)ccc1O                0
4  NC(=O)c1cccc(N2C3CCC2CN(CCCc2ccccc2)C3)c1                0
5      Nc1cccc(N2C3CCC2CN(CCCc2ccccc2)C3)c1                0

Now look at this entry.
Give recorded Emax. O=S(=O)(Nc1cccc(N2C3CCC2CN(CCCc2ccccc2)C3)c1)C1CC1 0
